- Read-out: Transforming growth factor beta 1 (TGFb1), TGFB1 (gene 7040)
- procedure-details: BSK_KF3CT_TGFb1: BioMAP Diversity Plus: KF3CT Assay for Transforming growth factor beta 1 (TGFb1) Biomarker Activity (AID 2283072)
- measurement-context: primary human keratinocytes with fibroblasts; actives raise or lower the signal
The source made the active and inactive calls. How the source made its calls: active means hit-call score of the fitted dose curve at least 0.9, where 1 is the maximum; inactive means score below 0.9.
Allowed answers: true = active, false = inactive

entry-smiles	group-label
[O-][Cl+]O	false
CC(C)COC(=O)c1ccccc1C(=O)OCC(C)C	false

Q) For O=P(OCCCl)(OCCCl)OCCCl , what call appears in the results of this test?
A) false

Q) For N#CC(Br)(Br)C(N)=O , what call appears in the results of this test?
A) false

Q) For CS(=O)(=O)NC(=O)c1cc(Oc2ccc(C(F)(F)F)cc2Cl)ccc1[N+](=O)[O-] , what call appears in the results of this test?
A) false

Q) For OCCCBr , what call appears in the results of this test?
A) false

Q) For CC(C)(C)OOC(C)(C)CCC(C)(C)OOC(C)(C)C , what call appears in the results of this test?
A) false

Q) For Cc1cc(N=Nc2ccccc2C)ccc1N , what call appears in the results of this test?
A) true

Q) For Nc1ccc(Oc2ccc(N)cc2)cc1 , what call appears in the results of this test?
A) false

Q) For O=C1CCCO1 , what call appears in the results of this test?
A) false

Q) For OCCOCCO , what call appears in the results of this test?
A) false

Q) For C[C@]12C=CC3=C4CCC(=O)C=C4CC[C@H]3[C@@H]1CC[C@@H]2O , what call appears in the results of this test?
A) false

---

- Read-out: Vascular endothelial growth factor receptor 2 (Homo sapiens) (UniProt P35968)
- procedure-details: BSK_4H_VEGFRII: BioMAP Diversity Plus: 4H Assay for Vascular endothelial growth factor receptor 2 (VEGFR2) Biomarker Activity (AID 2283031)
- measurement-context: primary human endothelial cells (HUVEC); actives raise or lower the signal
Active and inactive are the calls of the source. How the source made its calls: active means hit-call score of the fitted dose curve at least 0.9, where 1 is the maximum; inactive means score below 0.9.
Allowed answers: active, inactive

entry-smiles	group-label
Nc1ccc(Cc2ccc(N)cc2)cc1	inactive
Cc1ccc(N)c(N)c1	inactive
CCCCCCCCOC(=O)c1ccc(C(=O)OCCCCCCCC)c(C(=O)OCCCCCCCC)c1	inactive
ClCCOCCCl	inactive
CC(C)(C)OOC(=O)c1ccccc1	inactive
O=C(Oc1ccc(Br)cc1)N1CCN2CCC1CC2	inactive

Q) For CC(C)(C)OOC(C)(C)CCC(C)(C)OOC(C)(C)C , what call appears in the results of this test?
A) inactive

Q) For CN(C)[C@@H]1C(=O)C(C(N)=O)=C(O)[C@@]2(O)C(=O)C3=C(O)c4c(O)cccc4[C@@](C)(O)[C@H]3C[C@@H]12 , what call appears in the results of this test?
A) inactive

Q) For C[C@]12C=CC3=C4CCC(=O)C=C4CC[C@H]3[C@@H]1CC[C@@H]2O , what call appears in the results of this test?
A) inactive

---

- Read-out: Intercellular Adhesion Molecule 1 (ICAM1), ICAM1 (gene 3383)
- procedure-details: BSK_3C_ICAM1: BioMAP Diversity Plus: 3C Assay for Intercellular Adhesion Molecule 1 (ICAM1) Biomarker Activity (AID 2283003)
- measurement-context: primary human endothelial cells (HUVEC); actives raise or lower the signal
The source made the active and inactive calls. How the source made its calls: active means hit-call score of the fitted dose curve at least 0.9, where 1 is the maximum; inactive means score below 0.9.
Allowed answers: active, inactive

compound	group-label
CC(O)CCO (configuration not stated)	inactive
CC(C)COC(=O)c1ccccc1C(=O)OCC(C)C	inactive
Cc1ccc(N)cc1	inactive
ClC1=C(Cl)[C@]2(Cl)[C@H]3[C@H]([C@@H]4C=C[C@H]3C4)[C@@]1(Cl)C2(Cl)Cl	active
ClC1=C(Cl)C2(Cl)C3C(Cl)C=CC3C1(Cl)C2(Cl)Cl (configuration not stated)	active
CCC(C)c1ccc(O)cc1 (configuration not stated)	inactive

From here, focus on the item given below.
Q) For CN(C)c1ccccc1 , what call appears in the results of this test?
A) inactive
